This listing pairs binders with measured ELISA signal.
# TEST_SYSTEM: T1, monkey B7H3-His (monkey)
# T1 chain: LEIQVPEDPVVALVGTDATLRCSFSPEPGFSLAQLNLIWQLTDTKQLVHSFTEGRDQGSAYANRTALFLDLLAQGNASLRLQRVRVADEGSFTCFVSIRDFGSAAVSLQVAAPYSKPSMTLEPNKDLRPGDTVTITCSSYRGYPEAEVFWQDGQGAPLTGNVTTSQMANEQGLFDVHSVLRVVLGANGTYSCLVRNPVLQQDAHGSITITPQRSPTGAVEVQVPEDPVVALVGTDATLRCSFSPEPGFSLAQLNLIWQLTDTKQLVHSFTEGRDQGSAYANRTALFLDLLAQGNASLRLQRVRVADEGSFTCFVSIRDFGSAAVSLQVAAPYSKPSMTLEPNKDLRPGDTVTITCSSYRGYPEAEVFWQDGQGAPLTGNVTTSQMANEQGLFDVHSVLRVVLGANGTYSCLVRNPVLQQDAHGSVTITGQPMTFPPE
# ASSAY_COMMENT: ELISA, purified VHH
QUANTITY_KIND: ELISA signal

{"columns": ["BINDER", "QUANTITY_KIND", "OBSERVED_MEASUREMENT"],
 "data": [
  ["RWH1 (VHH, Camel VHH; tag not described; also called camel antibody RWH1) VHH: AVQLVESGGGSVQAGGSLRLSCAASGMNLDNYVRGWLRQAPGSKCEFVSIIRRDGTTDYGDSVKGRFTISRDNAKNTVYLQMNSLKPDDTAVYYCAAIVVPRAAEYACDGLPYRGQGTQVTVSS", "ELISA signal", 1.3],
  ["RWB2 (VHH, Camel VHH; tag not described; also called camel antibody RWB2) VHH: AVQLVDSGGGSVQAGGSLRLSCVVSGYAFSTYDMAWFRQAPGEKCEWVSTVTNNGRTFYADSVKGRFIISRDNAKNILYLQMNSLKPEDTAVYSCAAAGVRWRCASGGNEGTQVTVSS", "ELISA signal", 0.0799],
  ["RWG8 (VHH, Camel VHH; tag not described; also called camel antibody RWG8) VHH: DVQLVESGGGLVQPGGSLRLSCAASGFTFSRYWMGWFRQAPGKGVEWVSTINSGGGSTYYADSVKGRFTISRDNAKNTLYLQLNNLKTEDTAMYYCAKEQWRTGSRGQGTQVTVSS", "ELISA signal", 0.117]
]}
